Target: PLK4 (Homo sapiens, UniProt O00444)
Construct: expressed in transfected cells; host or cells: HEK293 T cells (ATCC CRL-3216)
Sequence (O00444 whole entry): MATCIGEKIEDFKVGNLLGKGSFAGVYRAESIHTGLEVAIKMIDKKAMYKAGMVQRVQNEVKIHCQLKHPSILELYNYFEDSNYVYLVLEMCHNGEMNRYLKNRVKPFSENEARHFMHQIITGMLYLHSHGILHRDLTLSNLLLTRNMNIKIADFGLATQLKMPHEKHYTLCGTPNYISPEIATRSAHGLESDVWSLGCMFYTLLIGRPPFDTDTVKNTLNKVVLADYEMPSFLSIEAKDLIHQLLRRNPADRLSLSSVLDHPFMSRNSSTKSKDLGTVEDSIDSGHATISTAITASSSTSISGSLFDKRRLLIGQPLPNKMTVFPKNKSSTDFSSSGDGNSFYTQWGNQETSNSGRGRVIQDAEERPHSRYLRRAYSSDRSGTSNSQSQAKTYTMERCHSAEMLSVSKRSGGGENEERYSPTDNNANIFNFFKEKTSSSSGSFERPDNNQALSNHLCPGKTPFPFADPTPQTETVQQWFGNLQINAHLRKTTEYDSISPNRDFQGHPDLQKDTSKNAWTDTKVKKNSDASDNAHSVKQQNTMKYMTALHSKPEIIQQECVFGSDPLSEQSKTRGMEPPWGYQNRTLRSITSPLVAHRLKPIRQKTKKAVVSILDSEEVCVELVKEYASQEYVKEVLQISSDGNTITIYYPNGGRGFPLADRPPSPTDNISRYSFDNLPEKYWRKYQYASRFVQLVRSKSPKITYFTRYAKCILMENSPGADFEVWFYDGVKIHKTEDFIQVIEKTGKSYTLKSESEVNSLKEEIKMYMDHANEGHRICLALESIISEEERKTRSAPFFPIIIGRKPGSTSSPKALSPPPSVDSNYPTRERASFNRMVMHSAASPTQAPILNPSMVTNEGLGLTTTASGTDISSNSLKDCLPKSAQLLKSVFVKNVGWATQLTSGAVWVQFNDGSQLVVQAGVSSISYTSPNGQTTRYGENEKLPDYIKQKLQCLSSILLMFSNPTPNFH
Experiment: PLK4 NanoBRET target engagement assay
Assay type: binding
Details: HEK293 T cells transfected with PLK4 NanoLuc fusion vector; K-5 tracer; 2 hrs incubation
measured.endpoint: log10(IC50) (log10 of the value in nM)

{"columns": ["molecule", "subject.of.test", "log10(IC50)"],
 "data": [
  ["Cc1cc(Nc2nc(N(C)c3c(F)cc(S(C)(=O)=O)cc3F)nc(-c3cn(C4CC(O)C4)cn3)c2C2CC2)n[nH]1 (stereo not shown)", "PLK4 (Homo sapiens, UniProt O00444)", 1.52],
  ["Cc1cc(Nc2nc(N(C)c3c(F)cc(C4CCOCC4)cc3F)nc(-c3cn(C)cn3)c2C2CC2)n[nH]1", "PLK4 (Homo sapiens, UniProt O00444)", 1.49],
  ["Cc1cc(Nc2nc(N(C)c3c(F)cc(S(C)(=O)=O)cc3F)nc(-c3ccn(C(F)F)n3)c2C2CC2)n[nH]1", "PLK4 (Homo sapiens, UniProt O00444)", 1.00],
  ["COCCn1cc(-c2nc(N(C)c3cc(F)c(S(C)(=O)=O)cc3F)nc(Nc3cc(C)[nH]n3)c2C2CC2)nc1C", "PLK4 (Homo sapiens, UniProt O00444)", 1.11],
  ["COc1c(Nc2cc(C)[nH]n2)nc(N(C)c2ccc(-c3nccs3)cc2)nc1-c1cnn(C)c1", "PLK4 (Homo sapiens, UniProt O00444)", 2.96],
  ["Cc1cc(Nc2nc(N(C)c3cc(F)c(S(C)(=O)=O)cc3F)nc(-c3ccn(CCO)n3)c2C2CC2)n[nH]1", "PLK4 (Homo sapiens, UniProt O00444)", 1.41],
  ["Cc1cc(Nc2nc(N(C)c3c(F)cc(S(C)(=O)=O)cc3F)nc(Nc3cc(C)[nH]n3)c2C2CC2)n[nH]1", "PLK4 (Homo sapiens, UniProt O00444)", 1.26]
]}
